- SYSTEM TESTED: WIZ protein (HiBit-WIZ fusion protein) (Homo sapiens, UniProt O95785+Q96SW2)
- Construct: expressed in transfected cells
- Sequence (O95785 whole entry, the tested form may be a part): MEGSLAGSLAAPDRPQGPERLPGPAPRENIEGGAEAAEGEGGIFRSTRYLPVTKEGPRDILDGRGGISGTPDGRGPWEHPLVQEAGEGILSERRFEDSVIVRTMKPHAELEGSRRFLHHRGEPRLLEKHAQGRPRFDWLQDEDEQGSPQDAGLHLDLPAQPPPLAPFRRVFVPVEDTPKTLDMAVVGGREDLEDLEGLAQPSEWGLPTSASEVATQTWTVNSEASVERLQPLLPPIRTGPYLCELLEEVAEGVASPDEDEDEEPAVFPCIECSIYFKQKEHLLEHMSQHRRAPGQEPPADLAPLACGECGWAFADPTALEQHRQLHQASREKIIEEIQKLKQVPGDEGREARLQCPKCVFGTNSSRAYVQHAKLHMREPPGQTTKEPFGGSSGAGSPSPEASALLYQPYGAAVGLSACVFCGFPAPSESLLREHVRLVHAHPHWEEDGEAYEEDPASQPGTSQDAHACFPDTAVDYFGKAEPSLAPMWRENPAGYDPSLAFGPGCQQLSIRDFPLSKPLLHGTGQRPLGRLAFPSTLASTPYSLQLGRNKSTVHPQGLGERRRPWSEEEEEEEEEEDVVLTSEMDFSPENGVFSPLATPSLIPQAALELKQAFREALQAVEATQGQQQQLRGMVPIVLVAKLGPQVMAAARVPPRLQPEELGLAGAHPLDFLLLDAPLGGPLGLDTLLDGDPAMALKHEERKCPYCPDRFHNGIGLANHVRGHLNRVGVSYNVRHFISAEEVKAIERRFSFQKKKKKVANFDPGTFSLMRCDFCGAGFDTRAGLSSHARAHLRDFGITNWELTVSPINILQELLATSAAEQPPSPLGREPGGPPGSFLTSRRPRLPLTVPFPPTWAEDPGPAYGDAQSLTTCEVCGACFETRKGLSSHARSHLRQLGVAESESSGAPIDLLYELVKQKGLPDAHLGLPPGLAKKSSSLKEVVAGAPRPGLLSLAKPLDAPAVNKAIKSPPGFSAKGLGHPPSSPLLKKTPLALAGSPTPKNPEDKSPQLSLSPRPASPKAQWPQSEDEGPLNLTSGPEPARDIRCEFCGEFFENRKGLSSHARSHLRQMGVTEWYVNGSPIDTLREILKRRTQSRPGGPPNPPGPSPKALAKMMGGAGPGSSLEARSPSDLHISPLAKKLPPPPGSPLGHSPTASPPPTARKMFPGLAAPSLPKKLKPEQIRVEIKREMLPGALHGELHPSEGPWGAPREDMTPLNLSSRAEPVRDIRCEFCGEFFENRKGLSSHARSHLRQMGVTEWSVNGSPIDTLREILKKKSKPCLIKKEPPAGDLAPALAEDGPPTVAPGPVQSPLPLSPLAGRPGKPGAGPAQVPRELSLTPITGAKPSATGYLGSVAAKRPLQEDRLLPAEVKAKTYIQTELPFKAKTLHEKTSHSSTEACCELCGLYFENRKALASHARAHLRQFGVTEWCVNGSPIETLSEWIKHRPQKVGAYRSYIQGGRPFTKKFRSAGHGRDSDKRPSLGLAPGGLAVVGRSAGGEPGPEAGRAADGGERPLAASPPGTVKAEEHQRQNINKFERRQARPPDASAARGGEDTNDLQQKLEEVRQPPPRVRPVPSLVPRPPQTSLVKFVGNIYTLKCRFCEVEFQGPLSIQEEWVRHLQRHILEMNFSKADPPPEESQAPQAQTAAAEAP
- Sequence (Q96SW2 whole entry, the tested form may be a part): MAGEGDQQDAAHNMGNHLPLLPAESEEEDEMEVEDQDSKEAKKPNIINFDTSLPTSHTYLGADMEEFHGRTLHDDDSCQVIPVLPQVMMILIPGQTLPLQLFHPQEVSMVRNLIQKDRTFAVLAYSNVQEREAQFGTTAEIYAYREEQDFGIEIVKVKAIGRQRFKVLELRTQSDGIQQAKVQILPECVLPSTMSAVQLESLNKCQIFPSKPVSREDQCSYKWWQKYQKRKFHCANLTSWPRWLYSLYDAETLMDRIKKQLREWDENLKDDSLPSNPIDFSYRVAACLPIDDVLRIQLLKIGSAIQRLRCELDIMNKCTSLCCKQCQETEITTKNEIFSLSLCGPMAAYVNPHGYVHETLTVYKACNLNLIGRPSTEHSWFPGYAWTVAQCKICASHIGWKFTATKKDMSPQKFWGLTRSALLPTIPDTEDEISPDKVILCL
- Sequence (Q16531 whole entry partner, the tested form may be a part): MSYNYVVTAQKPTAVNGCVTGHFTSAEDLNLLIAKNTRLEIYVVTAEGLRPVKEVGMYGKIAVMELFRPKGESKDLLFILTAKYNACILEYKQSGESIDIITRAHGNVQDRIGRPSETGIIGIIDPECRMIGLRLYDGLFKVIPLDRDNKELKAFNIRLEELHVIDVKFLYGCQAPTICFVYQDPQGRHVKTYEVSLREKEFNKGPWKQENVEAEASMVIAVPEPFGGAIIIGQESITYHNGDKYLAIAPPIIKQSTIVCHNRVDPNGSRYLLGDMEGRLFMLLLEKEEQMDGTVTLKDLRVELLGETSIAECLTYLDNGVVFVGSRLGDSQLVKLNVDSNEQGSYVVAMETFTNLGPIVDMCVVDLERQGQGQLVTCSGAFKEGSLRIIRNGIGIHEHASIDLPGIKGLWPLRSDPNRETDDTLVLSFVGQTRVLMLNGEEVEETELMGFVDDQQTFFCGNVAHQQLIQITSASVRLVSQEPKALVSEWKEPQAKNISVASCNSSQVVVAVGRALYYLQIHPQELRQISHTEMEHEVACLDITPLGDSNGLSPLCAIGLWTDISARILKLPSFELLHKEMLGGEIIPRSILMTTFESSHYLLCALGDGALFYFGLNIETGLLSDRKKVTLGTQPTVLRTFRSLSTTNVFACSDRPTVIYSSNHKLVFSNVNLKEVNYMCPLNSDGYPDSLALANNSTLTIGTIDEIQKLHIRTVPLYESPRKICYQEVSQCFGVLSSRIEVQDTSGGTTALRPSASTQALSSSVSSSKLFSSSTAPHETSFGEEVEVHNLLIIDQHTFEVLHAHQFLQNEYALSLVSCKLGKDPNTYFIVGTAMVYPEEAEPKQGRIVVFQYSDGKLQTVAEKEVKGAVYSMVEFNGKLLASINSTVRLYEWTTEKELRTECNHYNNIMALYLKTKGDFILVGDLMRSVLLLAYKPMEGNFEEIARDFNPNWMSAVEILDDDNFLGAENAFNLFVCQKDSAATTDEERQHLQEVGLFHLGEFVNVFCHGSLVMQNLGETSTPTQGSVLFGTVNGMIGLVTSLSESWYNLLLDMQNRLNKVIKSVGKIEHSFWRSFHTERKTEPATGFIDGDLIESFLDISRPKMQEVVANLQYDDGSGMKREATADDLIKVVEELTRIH
- MEASUREMENT PROTOCOL: Quantification of WIZ protein levels in HiBit tag fusion protein assay (WIZ HiBit assay in 293T cells)
- Format: cell-based
- TEST SETTINGS: HEK-293T, 100 − Amax, at 25 uM; 293T cells; read-out: % degradation of WIZ (100 − Amax)
MEASUREMENT LABEL: Dmax at 25 µM (%)

| COMPOUND | READOUT UNITS | Dmax at 25 µM |
| --- | --- | --- |
| CC(C)(CC1CCOCC1)N1CCC(Cc2ccn3ncc(N4CCC(=O)NC4=O)c3c2)CC1 | % | 77 |
| O=C1CCN(c2cnn3ccc(CC4CCN(CC(CO)CO)CC4)cc23)C(=O)N1 | % | 50 |
| CC1(CN2CCC(Cc3ccn4ncc(N5CCC(=O)NC5=O)c4c3)CC2)COC1 | % | 64 |
| O=C1CCN(c2cnn3ccc(CC4CCN(C(=O)C5CCCCC5)CC4)cc23)C(=O)N1 | % | 52 |
| CO[C@H]1CC[C@@H](CN2CCN(Cc3ccn4ncc(N5CCC(=O)NC5=O)c4c3)CC2)CC1 | % | 81 |

A. O=C1CCN(c2cnn3ccc(CC4CN(CC5CCCCC5)C4)cc23)C(=O)N1
B. CC(C)CS(=O)(=O)N1CCC(Cc2ccn3ncc(N4CCC(=O)NC4=O)c3c2)CC1
C. C[C@H]1CN(CC2CCC2)CCN1Cc1ccn2ncc(N3CCC(=O)NC3=O)c2c1
D. CC(C)CN1CC[C@@H](Cc2ccn3ncc(-n4cc(C5CC5)c(=O)[nH]c4=O)c3c2)C[C@@H]1C
Ask: Order each entry by recorded Dmax at 25 µM, climbing from the minimum. Answer format: list of labels, ordered as asked.
Result: D, A, C, B

* * *

- SYSTEM TESTED: WIZ protein (HiBit-WIZ fusion protein) (Homo sapiens, UniProt O95785+Q96SW2)
- Construct: expressed in transfected cells
- MEASUREMENT PROTOCOL: Quantification of WIZ protein levels in HiBit tag fusion protein assay (WIZ HiBit assay in 293T cells)
- Assay type: cell-based
- TEST SETTINGS: HEK-293T, 100 − Amax, at 25 uM; 293T cells; read-out: % degradation of WIZ (100 − Amax)
MEASUREMENT LABEL: Dmax at 25 µM (%)

| MOLECULE | Dmax at 25 µM [%] |
| --- | --- |
| O=C1CCN(c2cnn3ccc(CN4CCN5CCCC[C@@H]5C4)cc23)C(=O)N1 [Example 313] | 70 |
| C[C@H]1CN(Cc2ccn3ncc(N4CCC(=O)NC4=O)c3c2)CCN1CC1CCO1 (stereo partly drawn) [Example 324] | 72 |
| Cc1ccc(CN2CCC(Cc3ccn4ncc(N5CCC(=O)NC5=O)c4c3)CC2)cn1 [Example 46] | 69 |

* * *

- SYSTEM TESTED: WIZ protein (HiBit-WIZ fusion protein) (Homo sapiens, UniProt O95785+Q96SW2)
- Construct: expressed in transfected cells
- MEASUREMENT PROTOCOL: Quantification of WIZ protein levels in HiBit tag fusion protein assay (WIZ HiBit assay in 293T cells)
- Format: cell-based
- TEST SETTINGS: HEK-293T, 100 − Amax, at 25 uM; 293T cells; read-out: % degradation of WIZ (100 − Amax)
MEASUREMENT LABEL: Dmax at 25 µM (%)

| SMILES | READOUT UNITS | Dmax at 25 µM |
| --- | --- | --- |
| C[C@@H]1C[C@@H](Cc2ccn3ncc(N4CCC(=O)NC4=O)c3c2)CCN1CC1CCOCC1 | % | 78 |
| CO[C@H]1C[C@@H](CN2CCN(Cc3ccn4ncc(N5CCC(=O)NC5=O)c4c3)C[C@@H]2C)C1 | % | 80 |
| O=C1CCN(c2cnn3ccc(CC4CCN(CC(F)(F)F)CC4)cc23)C(=O)N1 | % | 80 |

* * *

- SYSTEM TESTED: WIZ protein (HiBit-WIZ fusion protein) (Homo sapiens, UniProt O95785+Q96SW2)
- Construct: expressed in transfected cells
- MEASUREMENT PROTOCOL: Quantification of WIZ protein levels in HiBit tag fusion protein assay (WIZ HiBit assay in 293T cells)
- Type: cell-based
- TEST SETTINGS: HEK-293T, DMSO-normalized, curve-fitted percentage of WIZ-HiBit remaining at 25 uM; 293T cells; read-out: WIZ Amax
MEASUREMENT LABEL: remaining activity at 25 µM (%)

| SMILES | remaining activity at 25 µM, % |
| --- | --- |
| C[C@H]1C[C@H](Cc2ccn3ncc(N4CCC(=O)NC4=O)c3c2)CCN1S(=O)(=O)C1CC1 | 20 |
| C[C@H]1C[C@H](Cc2ccn3ncc(N4CCC(=O)NC4=O)c3c2)CCN1C(=O)C1CCC1 | 21 |
| O=C1CCN(c2cnn3ccc(CC4(F)CCN(CC5CCC5)CC4)cc23)C(=O)N1 | 45 |
| CC(C)CN1CCN(Cc2ccn3ncc(-n4ccc(=O)[nH]c4=O)c3c2)C[C@@H]1C | 15 |
| CCO[C@H]1CC[C@H](CN2CCC(Cc3ccn4ncc(N5CCC(=O)NC5=O)c4c3)CC2)CC1 | 19 |
| CC(C)CN1CCN(Cc2ccn3ncc(-n4cc(C5CC5)c(=O)[nH]c4=O)c3c2)C[C@@H]1C | 100 |
| CC(C)(O)CN1CCN(Cc2ccn3ncc(N4CCC(=O)NC4=O)c3c2)CC1 | 35 |
| O=C1CCN(c2cnn3ccc(CC4CCN(CC5(C(F)(F)F)CC5)CC4)cc23)C(=O)N1 | 36 |

1. O=C1CCN(c2cnn3ccc(CC4CCN(S(=O)(=O)C5CCOCC5)CC4)cc23)C(=O)N1
2. COC(=O)N1CCC(Cc2ccn3ncc(N4CCC(=O)NC4=O)c3c2)CC1
3. CC(C)CN1CCC(Cc2ccn3ncc(N4CCC(=O)NC4=O)c3c2)CC1
Ask: Order each entry by recorded remaining activity at 25 µM, climbing from the minimum. Answer format: list of labels, ordered as asked.
Result: 1, 3, 2
(1: 11%, 3: 18%, 2: 38%)

* * *

- SYSTEM TESTED: WIZ protein (HiBit-WIZ fusion protein) (Homo sapiens, UniProt O95785+Q96SW2)
- Construct: expressed in transfected cells
- MEASUREMENT PROTOCOL: Quantification of WIZ protein levels in HiBit tag fusion protein assay (WIZ HiBit assay in 293T cells)
- Type: cell-based
- TEST SETTINGS: HEK-293T, 100 − Amax, at 25 uM; 293T cells; read-out: % degradation of WIZ (100 − Amax)
MEASUREMENT LABEL: Dmax at 25 µM (%)

Worked examples follow.
| COMPOUND | SYSTEM TESTED | Dmax at 25 µM (%) |
| --- | --- | --- |
| C[C@H]1CN(Cc2ccn3ncc(N4CCC(=O)NC4=O)c3c2)CCN1CC1CC2(COC2)C1 | WIZ protein (HiBit-WIZ fusion protein) (Homo sapiens, UniProt O95785+Q96SW2) | 82 |
| O=C1CCN(c2cnn3ccc(CN4CCN(Cc5ccc(F)cc5)CC4)cc23)C(=O)N1 | WIZ protein (HiBit-WIZ fusion protein) (Homo sapiens, UniProt O95785+Q96SW2) | 56 |
| C[C@H]1C[C@H](Cc2ccn3ncc(N4CCC(=O)NC4=O)c3c2)CCN1C(=O)N1CCCC1 | WIZ protein (HiBit-WIZ fusion protein) (Homo sapiens, UniProt O95785+Q96SW2) | 80 |
| CCC(CC)N1CCN(Cc2ccn3ncc(N4CCC(=O)NC4=O)c3c2)CC1 | WIZ protein (HiBit-WIZ fusion protein) (Homo sapiens, UniProt O95785+Q96SW2) | 69 |
| C[C@H]1C[C@H](Cc2ccn3ncc(N4CCC(=O)NC4=O)c3c2)CCN1CC1CCC1 | WIZ protein (HiBit-WIZ fusion protein) (Homo sapiens, UniProt O95785+Q96SW2) | 82 |

1. C[C@H]1C[C@H](Cc2ccn3ncc(N4CCC(=O)NC4=O)c3c2)CCN1CC(F)F
2. C[C@H]1CN(Cc2ccn3ncc(N4CCC(=O)NC4=O)c3c2)CCN1C1CC2(COC2)C1
Ask: Between the two listed entries 1 and 2 , which has its Dmax at 25 µM at the higher number? Write down the label of the entry you select.
Result: 1
(1: 77%, 2: 49%)

* * *

- SYSTEM TESTED: WIZ protein (HiBit-WIZ fusion protein) (Homo sapiens, UniProt O95785+Q96SW2)
- Construct: expressed in transfected cells
- MEASUREMENT PROTOCOL: Quantification of WIZ protein levels in HiBit tag fusion protein assay (WIZ HiBit assay in 293T cells)
- Assay type: cell-based
- TEST SETTINGS: WIZ HiBit assay in 293T cells; 10-point, 5-fold dose response, highest concentration 25 μM, about 18 hours; read-out: WIZ AC50
MEASUREMENT LABEL: DC50 (nM)

Worked examples follow.
| COMPOUND | READOUT UNITS | DC50 |
| --- | --- | --- |
| CC(C)C(=O)N1CCN(Cc2ccn3ncc(N4CCC(=O)NC4=O)c3c2)C[C@@H]1C [Example 341] | nM | 799 |
| CC(C)(F)CN1CCN(Cc2ccn3ncc(N4CCC(=O)NC4=O)c3c2)CC1 [Example 169] | nM | 326 |
| CC(C)C(=O)N1CCC(Cc2ccn3ncc(N4CCC(=O)NC4=O)c3c2)CC1 [Example 98] | nM | 587 |

I. CC(C)CN1CCN(Cc2ccn3ncc(N4CCC(=O)NC4=O)c3c2)CC1(C)C [Example 233]
II. CC(C)CN1CCN(Cc2ccn3ncc(N4CCC(=O)NC4=O)c3c2)C[C@@H]1C(F)F [Example 247]
III. C[C@@H]1C[C@@H](Cc2ccn3ncc(N4CCC(=O)NC4=O)c3c2)CCN1CC1CCOCC1 [Example 154]
Ask: Please give the order of these compounds when sorted by DC50, largest value leading. Answer format: list of labels, ordered as asked.
Result: II, I, III
